# Test system: SK-MEL-5 melanoma
# ASSAY_SUMMARY: NCI tumour cell line growth inhibition, 48 h
Recorded TGI values for a group of molecules are listed next.

Examples with answers:
So for CC1C(=O)OC2CC[N+]3(CC(=O)c4ccc(Br)cc4)CC=C(COC(=O)C(C)(O)C1(C)O)C23 (centres undefined) , the logged TGI turned out to be > 375 µM

Sample COc1cc(/C=C2/C(=O)N(C(=O)OC(C)C)C(Cc3cc(OC)c(OC)c(C)c3OC)C(=O)N2Cc2ccccc2)c(OC)c(C)c1OC (centres undefined) ; TGI observed: > 100 µM

The molecule identified as O=c1cc(-c2ccccc2)[nH]c2cc(F)c(F)cc12 registered its TGI at 18.7 µM

The molecule identified as CC1CN=C(Nc2ccc(F)cc2F)S1 (centres undefined) registered its TGI at > 100 µM

Record C=C1C(=O)O[C@@H]2[C@H]1C[C@@H](O)[C@H](C)[C@@](O)(C(=O)/C=C/C)[C@H]2OC(=O)C(C)CC (some centres undefined) . Reported TGI: 21.3 µM

Looking up Cc1nc2c(n1CCO)C(=O)c1ccccc1C2=O , I see its TGI listed as 23.4 µM

Sample Cn1c2ccccc2c(=S)c2ccccc21 ; TGI observed: > 100 µM

TGI recorded for this molecule, S=C1SC(=Nc2ccccc2)C(=Nc2ccccc2)N1c1ccccc1 , is > 100 µM

Next:
Note to self: TGI recorded for COc1cc(/C=C2\[C@H]3c4c(c(OC)c(C)c(OC)c4OC)C[C@@H](C(=O)N2Cc2ccccc2)N3C(=O)OCC(C)C)c(OC)c(C)c1OC was > 100 µM

* * *

# Test system: HL-60(TB) leukemia
# ASSAY_SUMMARY: NCI tumour cell line growth inhibition, 48 h
Recorded TGI, one value per entry.
Give just the number in µM; leave the unit off.

Solved entries:
Simply: Cc1nn(-c2nc3ccccc3s2)c(C)c1Oc1ccccc1O , HL-60(TB) leukemia, TGI = 18.1

Lab note: molecule Cn1c2ccccc2c2c(-c3ccccc3)[n+]3ccccc3nc21 tested on HL-60(TB) leukemia; recorded TGI was 66.6

The molecule CC(C)=CC1C(COC(=O)c2cc3c(cc2Cl)OCO3)C1(C)C (stereo not given) , tested on HL-60(TB) leukemia, showed TGI of 47.6

Item CC(=O)N1N=C2/C(=C/c3ccccc3)CC(C)CC2C1c1ccccc1 (stereo not given) ; assay system HL-60(TB) leukemia; TGI reported as 32.1

Now for the molecule whose TGI we want.
The molecule Cn1cncc1[C@@](N)(c1ccc(Cl)cc1)c1ccc2c(c1)c(-c1cccc(Cl)c1)cc(=O)n2C , tested on HL-60(TB) leukemia, showed TGI of 4.62

* * *

List of TGI values.
# Tested on: ACHN renal
# ASSAY_SUMMARY: NCI tumour cell line growth inhibition, 48 h
Where a SMILES comes first, the peptide text is derived from it. The star is where a group is joined. Boc = CC(C)(C)OC(=O)*

Take a look at these entries with their results.
Lookup result for COc1ccc(NC(=O)CC(=O)N2N=C(N3CCCCC3)CC2c2ccccc2)cc1 (stereo unspecified) ; measured TGI: > 100 µM

So for COc1cc2cc(C(=O)N3CC(CCl)c4c3cc([N+](=O)[O-])c3ccccc43)[nH]c2c(OC)c1OC (stereo unspecified) , the logged TGI turned out to be > 100 µM

TGI in this record for CCOC(=O)/C(O)=C(/c1n[nH]c(=O)c2ccccc12)[N+](=O)[O-] : > 100 µM

Given item CC(NC(=O)C(NC(=O)OC(C)(C)C)C(C)C)C(=O)N1CCCC1C(=O)NCC(=O)NC(C(=O)NCC(=O)O)C(C)C (stereo unspecified) (Boc-VAPGVG-OH; configuration not given here) , the value recorded as its TGI is > 100 µM

New cases:
TGI recorded for this compound, COc1ccc(CCN2C(=O)C=CC2=O)cc1OC , is 3.17 µM

# TGI (compound: COc1ccc(-c2[nH]c3ccccc3c2C=C(C#N)C#N)cc1 ) is > 100 µM

For record C=C1C(=O)O[C@@H]2[C@H]1C[C@@H](O)[C@H](C)[C@@](O)(C(=O)/C=C/C)[C@H]2OC(=O)C(C)CC (stereo partly specified) the listed TGI is 9.89 µM

Entry under test: COc1ccc(N(C)S(=O)(=O)c2ccccc2)cc1 . Its TGI was > 100 µM

Summary for this compound, Cc1cc(O)cc2oc(=O)c3c(O)cc(O)cc3c12 : TGI is 71.1 µM

So, CC1=CC(=NC(=O)CBr)C=C/C1=N\S(=O)(=O)c1ccccc1 ? Its TGI was 8.98 µM

The compound listed as Cn1c2ccccc2c2c(-c3ccccc3)[n+]3ccccc3nc21 has a reported TGI of > 100 µM

Origin of values: PubChem BioAssay (NCI)
